- Test system: TK-10 renal
- method notes: NCI tumour cell line growth inhibition, 48 h
observable: TGI (µM)
Numbers only, in µM.

These recorded examples may help you get a feel for the data.
CN(C)CCNc1ccc2nnn3c4ccc(O)cc4c(=O)c1c23 :: 31.9
COc1ccc2c(c1OC)OC[C@@H](C1=CC(=O)C=C(O)C1=O)C2 :: 27.3
CCNCCNc1cc(-c2ccc(Cl)c(Cl)c2)c(C#N)c2nc3ccccc3n12 :: 3.11

Lookup result for Oc1ccc2c(c1)OCC1(O)Cc3cc(O)c(O)cc3C21 (stereo not given) ; measured TGI: 31.2

---

Could you please report measured TGI for the items listed next?
- System: CCRF-CEM leukemia
- method notes: NCI tumour cell line growth inhibition, 48 h

Consider the following illustrative entries.
CC1(C)OCC[C@@H]1[Si](C)(C)C :: > 100 µM
COC(=O)N[C@H]1C=C[C@@H]2/C=C(C)/C=C/[C@@H](C)[C@H]([C@H](C)[C@H](O)[C@@H](C)NC(C)=O)OC(=O)/C=C/C=C(C)\C=C\[C@]2(C)C1 :: > 45.3 µM
CCCCCC[n+]1noc(N)c1-c1ccc(-c2c(N)on[n+]2CCCCCC)cc1 :: 10.1 µg/mL
COC(=O)C(=O)C(CC(=O)Nc1c(C)cccc1C)C(=O)OC (stereo not given) :: > 100 µM

In plain terms, CC(C)C(NCc1c2ccccc2[n+]([O-])c2ccccc12)C(=O)O (stereo not given) has a documented TGI of > 100 µM

---

- System: PC-3 prostate
- method notes: NCI tumour cell line growth inhibition, 48 h
For each record, write down the corresponding GI50.

// solved cases for GI50 follow
COc1ccc(/C=C(/C(=O)N2CCCCC2)c2cc(OC)c(OC)c(OC)c2)cc1 :: 527 nM
CCCCCC[n+]1noc(N)c1-c1ccc(-c2c(N)on[n+]2CCCCCC)cc1 :: 3.46 µg/mL

The following compounds each have a reported value; give each one's GI50.
1. COC(=O)[C@]12CC[C@@H](C)[C@H](C)[C@@H]1C1=CC[C@@H]3[C@@]4(C)C[C@@H](OC(C)=O)[C@H](O)[C@@](C)(CO)[C@@H]4[C@H](O)C[C@@]3(C)[C@]1(C)CC2
2. CCCCCCCCn1ccc2cc(NC(=O)Cn3cc(CN4CCN(CC)CC4)nn3)ccc21
3. C#CCNCCCN1C(=O)c2ccc3c4c(ccc(c24)C1=O)C(=O)N(CCCNCC#C)C3=O

Reply:
1: 7530 nM; 2: 2060 nM; 3: 463 nM

---

- System: HCT-15 colon
- method notes: NCI tumour cell line growth inhibition, 48 h
observable: TGI

Field: TGI. Fill in for each record below.
1. CCOC(=O)c1cc(C)n(CN(CCO)Cn2nc(C(=O)OCC)cc2C)n1
2. CN(C)CCNc1ccc2nnn3c4ccc(O)cc4c(=O)c1c23
3. COc1ccccc1CNCCCCCNCCCCCCCCCCNCCCCCNCc1ccccc1OC
4. CC1(C)OCC(C2OC(OC(=O)c3ccc(C(F)(F)F)cc3)C3OC(C)(C)OC23)O1 (configuration not stated)

Reply:
48.1 µM
13.4 µM
> 100 µM
> 77.5 µM

---

- Tested on: NCI-H460 lung
Where a SMILES comes first, the peptide text is derived from it.
Mark one answer only. Choices: TRUE = active, FALSE = inactive

CCC(C)C1NC(=O)C(CCCCN)NC(=O)C(CCCCN)NC(=O)C(CC(C)C)NC(=O)C(CCCCN)NC(=O)C(C(C)CC)NC(=O)C(C(C)C)NC(=O)C(C(C)CC)NC(=O)C(CCCCN)NC(=O)C(CCCCN)NC(=O)C(C)NC(=O)C(CCCCN)NC(=O)C(CC(C)C)NC1=O (configuration not stated) (cyclo(AKKIVIKLKKILK); configuration not given here) :: FALSE
C#CC#CC#CC#CC#CC#CC#CC#CC[C@@H]1OC[C@H](COC(=O)O[C@@H](C(=O)O[C@H]2C[C@@]3(O)[C@@H](OC(=O)c4ccccc4)[C@@H]4[C@]5(OC(C)=O)CO[C@@H]5C[C@H](O)[C@@]4(C)C(=O)[C@H](OC(C)=O)C(=C2C)C3(C)C)[C@@H](NC(=O)c2ccccc2)c2ccccc2)O1 :: TRUE
Nc1c(C(=O)N/N=C/c2ccco2)cnn1-c1ccnc2c(C(F)(F)F)cccc12 :: FALSE
O=c1cc(/C=C/c2ccc(O)c(O)c2)cc(/C=C/c2ccc(O)c(O)c2)o1 :: FALSE
NS(=O)(=O)c1ccc(N=Nc2c(O)[nH]c3ccc(Cl)cc23)cc1 :: FALSE

Task item: What classification did "O=c1[nH]nc(-c2nn(-c3ccc(Cl)cc3)cc2O)o1" end up with in this test?
Reply: TRUE

Task item: # outcome recorded in this test, key = "CC[N-]c1nnnn1CC.[Au+].c1ccc([PH+](c2ccccc2)c2ccccc2)cc1"
Reply: FALSE

Task item: Returns: the outcome recorded for "CCOc1ccccc1C(=O)/C=C/c1cc2ccccc2[nH]c1=O" in this assay.
Reply: TRUE
